Documented AUC(0-t) at 24 h across a set of molecules
- Assay summary: Pharmacokinetics in CD-1 mice
- Reported conditions: CD-1, mouse, plasma, iv, 10 mg/kg, pH 4
Endpoint name: AUC(0-t) at 24 h (ng·h/mL)

{"columns": ["Molecule", "Reading"],
 "data": [
  ["CN(C)Cc1cc2cc3c(cc2n1C)OCCc1c-3[nH]c(=O)c(C(=O)O)c1O [Compound 6s]", 2930],
  ["Cn1c(CNC2(C)CCC2)cc2cc3c(cc21)CCCc1c-3[nH]c(=O)c(C(=O)O)c1O [Compound 6p]", 4580]
]}

====

- Assay summary: Pharmacokinetics in CD-1 mice
- Reported conditions: CD-1, mouse, plasma, iv, 10 mg/kg, pH 8

{"columns": ["Molecule", "Endpoint unit", "clearance"],
 "data": [
  ["CCC(C)NCc1cc2cc3c(cc2n1C)OCCc1c-3[nH]c(=O)c(C(=O)O)c1O.Cl (centres unmarked)", "mL/min/kg", 48],
  ["Cn1c(CN2CCCC2)cc2cc3c(cc21)CCCc1c-3[nH]c(=O)c(C(=O)O)c1O", "mL/min/kg", 41],
  ["CN(C)Cc1cc2cc3c(cc2n1C)CCCc1c-3[nH]c(=O)c(C(=O)O)c1O", "mL/min/kg", 47],
  ["CC(C)NCc1cc2cc3c(cc2n1C)CCCc1c-3[nH]c(=O)c(C(=O)O)c1O", "mL/min/kg", 64],
  ["Cn1c(CNC2(C)CCC2)cc2cc3c(cc21)OCCc1c-3[nH]c(=O)c(C(=O)O)c1O", "mL/min/kg", 37]
]}
